Target: BaF3 V617F cells (Homo sapiens, UniProt O60674, V617F, cells depend on it)
Sequence (O60674 whole entry V617F): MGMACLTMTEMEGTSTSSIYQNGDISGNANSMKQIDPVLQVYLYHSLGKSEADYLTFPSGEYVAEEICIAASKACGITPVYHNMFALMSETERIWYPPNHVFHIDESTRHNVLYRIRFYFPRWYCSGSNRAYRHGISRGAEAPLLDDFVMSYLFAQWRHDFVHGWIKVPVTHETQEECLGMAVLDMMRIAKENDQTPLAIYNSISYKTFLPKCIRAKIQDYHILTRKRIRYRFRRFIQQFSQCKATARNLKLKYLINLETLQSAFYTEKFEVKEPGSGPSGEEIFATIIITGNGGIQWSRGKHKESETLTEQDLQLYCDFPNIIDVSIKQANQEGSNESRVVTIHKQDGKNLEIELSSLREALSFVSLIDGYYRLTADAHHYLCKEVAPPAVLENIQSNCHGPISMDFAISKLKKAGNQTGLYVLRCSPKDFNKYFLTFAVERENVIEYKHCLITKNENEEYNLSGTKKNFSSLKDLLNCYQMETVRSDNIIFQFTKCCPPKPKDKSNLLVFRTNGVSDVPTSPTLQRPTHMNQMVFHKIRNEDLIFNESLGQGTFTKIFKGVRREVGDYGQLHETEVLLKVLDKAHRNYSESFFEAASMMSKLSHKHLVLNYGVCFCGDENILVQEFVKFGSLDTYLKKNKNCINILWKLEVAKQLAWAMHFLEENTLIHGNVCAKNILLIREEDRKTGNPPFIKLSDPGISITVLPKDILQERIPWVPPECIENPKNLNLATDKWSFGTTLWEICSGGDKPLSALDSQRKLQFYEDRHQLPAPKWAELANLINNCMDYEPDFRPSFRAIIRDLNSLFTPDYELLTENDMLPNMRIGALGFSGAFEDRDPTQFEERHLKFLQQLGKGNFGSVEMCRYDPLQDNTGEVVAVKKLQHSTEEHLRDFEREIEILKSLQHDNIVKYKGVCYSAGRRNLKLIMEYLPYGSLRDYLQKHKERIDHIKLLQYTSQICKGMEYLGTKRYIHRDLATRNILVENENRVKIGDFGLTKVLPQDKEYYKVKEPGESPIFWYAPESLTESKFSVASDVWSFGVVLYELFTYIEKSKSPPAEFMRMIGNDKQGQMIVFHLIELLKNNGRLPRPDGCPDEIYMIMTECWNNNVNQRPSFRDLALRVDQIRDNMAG
Assay: Proliferation assay, BaF3 V617F cells (Cell Titer-Glo)
Format: cell-based, mouse
Details: proliferation for 72 hours at 37° C., stated to show ability to inhibit JAK2 activity, read-out: IC50 (the source's name)
Measured Attribute: GI50

In the examples that follow, each entry is paired with its recorded GI50.
>  <Compound>
O=C1N[C@@H]2c3cc(Nc4ncc(Cl)c(Nc5cccc6c5CCC6)n4)ccc3CC2O1 (stereo partly drawn) [Compound 34]

>  <GI50>
≥ 5000 nM

$$$$
>  <Compound>
O=C1N[C@H]2c3cc(Nc4ncc(Cl)c(Nc5cccc6c5OCCO6)n4)ccc3C[C@H]2O1 [Compound 23]

>  <GI50>
1000 to 5000 nM

$$$$
>  <Compound>
Cc1cnc(Nc2ccc3c(c2)[C@H]2NC(=O)O[C@H]2C3)nc1Nc1ccc2c(c1)N(C)C(=O)CS2 [Compound 4]

>  <GI50>
500 to 1000 nM

$$$$

Entry Cc1cc(CNS(=O)(=O)C2CC2)ccc1Nc1nc(Nc2ccc3c(c2)[C@@H]2NC(=O)OC2C3)ncc1C (stereo partly drawn) [Compound 18] , GI50 reported as 1000 to 5000 nM

Noted for Cc1cnc(Nc2ccc3c(c2)[C@H]2NC(=O)OC2C3)nc1Nc1ccc2c(n1)N(C)C(=O)C(C)(C)O2 (stereo partly drawn) [Compound 5] : its GI50 reads < 250 nM

Data point: O=C1CO[C@H]2Cc3ccc(Nc4ncc(Cl)c(Nc5ccc(CNS(=O)(=O)C6CC6)cc5)n4)cc3[C@H]2N1 [Compound 40] ; GI50 = < 250 nM

Recorded result, Cc1cnc(Nc2ccc3c(c2)[C@@H]2NC(=O)O[C@@H]2C3)nc1Nc1ccc2c(c1)N(C)C(=O)C(C)(C)O2 [Compound 9] , GI50: 250 to 500 nM

// field: GI50; key: Cc1cc(CNS(=O)(=O)C2CC2)ccc1Nc1nc(Nc2ccc3c(c2)[C@@H]2NC(=O)O[C@@H]2C3)ncc1Cl [Compound 17] ; value = 1000 to 5000 nM

Recorded result, CCCN1C(=O)COc2ccc(Nc3nc(Nc4ccc5c(c4)[C@H]4NC(=O)O[C@H]4C5)ncc3C)cc21 [Compound 6] , GI50: 250 to 500 nM

The recorded GI50 for entry O=C1N[C@H]2c3cc(Nc4ncc(F)c(Nc5ccc(CCc6ccncc6)cc5)n4)ccc3C[C@H]2O1 [Compound 33] equals 250 to 500 nM

Record summary for Cc1cnc(Nc2ccc3c(c2)[C@H]2NC(=O)CO[C@H]2C3)nc1Nc1ccc(CNS(=O)(=O)C2CC2)cc1 [Compound 39] : reported GI50 = 250 to 500 nM

Measured GI50 of Cc1cnc(Nc2ccc3c(c2)[C@@H]2NC(=O)O[C@@H]2C3)nc1Nc1ccc(OCc2cccnc2)cc1 [Compound 32] : 250 to 500 nM

Per the records, this compound ( Cc1cnc(Nc2ccc3c(c2)[C@H]2NC(=O)O[C@H]2C3)nc1Nc1cccc2c1CCCC2 [Compound 37] ) has GI50 equal to < 250 nM

Entry O=C1N[C@H]2c3cc(Nc4ncc(Cl)c(Nc5cccc6c5OC(F)(F)O6)n4)ccc3C[C@H]2O1 [Compound 25] , GI50 reported as ≥ 5000 nM

GI50 measured on Cc1cnc(Nc2ccc3c(c2)[C@H]2NC(=O)O[C@H]2C3)nc1Nc1ccc2c(c1)N(C)C(=O)C(C)(C)O2 [Compound 2] = < 250 nM
